- TEST TARGET: GORASP1, Q9BQQ3
- Sequence (Q9BQQ3 1-208): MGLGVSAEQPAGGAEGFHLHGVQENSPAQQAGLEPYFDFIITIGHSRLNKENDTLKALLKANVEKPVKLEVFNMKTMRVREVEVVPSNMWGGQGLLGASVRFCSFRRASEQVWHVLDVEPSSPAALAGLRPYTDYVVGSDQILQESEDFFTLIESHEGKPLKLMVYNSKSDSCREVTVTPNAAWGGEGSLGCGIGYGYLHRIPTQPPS
- ASSAY NAME: holdup assay
- Parameters: key: below the threshold = too weak to quantify, mostly under pKd 3.1 to 4
- APPLIED CONDITIONS: plain residues with an end cap or a label only (N-terminal biotin on a linker: ahx)
MEASURED ENDPOINT: pKd

HSATSVHTSV [MTMR1, Q13613] ... below the threshold
SKKNELFSNL [NHERF1, O14745] ... below the threshold
KDECVIATEV [DLL1, O00548] ... below the threshold
ADENEQVSAV [RAPGEF6, Q8TEU7] ... below the threshold
KEYDDELTFF [USH1C, Q9Y6N9] ... 3.56
YNSFLSVTTV [PDZRN3, Q9UPQ7] ... 3.8
SAPATLSSRA [PDLIM2, Q96JY6] ... below the threshold
PKMKLNETSF [SHKBP1, Q8TBC3] ... below the threshold
VNENQKEYFF [CNTNAP4, Q9C0A0] ... below the threshold
AKPQPVDSWV [ARVCF, O00192] ... 4
